The values you see were collected from the supplement of paper PMC10899765.

Please go through the items and note down their one-nucleolus phenotype percent effect.
# Test system: MCF10A
# Assay name: one-nucleolus phenotype percent effect, hitpick validation (relative to siNT 0% and siNOL11 100%); higher = more cells with one nucleolus
# Measurement conditions: 20 nM; 72 h
State just the number; it will be interpreted in %.

Prompt: State, in one line, measured one-nucleolus phenotype percent effect of UAGGAGCUCAACAGAUGCCUGUU [hsa-miR-3139]
Completion: 181

Prompt: Return one-nucleolus phenotype percent effect (reported value) for this sequence: AAAGGAGGAAAUAGGCAGGCCA [hsa-miR-3173-3p]
Completion: 84.3

Prompt: Give one-nucleolus phenotype percent effect for the following sequence: GAGCAAUGUAGGUAGACUGUUU [hsa-miR-3908]
Completion: 166

Prompt: For UGCCUGUCUACACUUGCUGUGC [hsa-miR-214-5p] , write its one-nucleolus phenotype percent effect.
Completion: 122
